Numbers sourced from the supplement of paper PMC10126150.

Measured switch fluorescence ratio values are reported for all entries that follow.
tested on: ATP; experiment: switch fluorescence ratio, 500 uM ATP over buffer (Cy3 cluster intensity, sum of 5 cycles each) (fold (ratio)); higher = stronger signal-on switching upon ATP binding; sequences stand for … in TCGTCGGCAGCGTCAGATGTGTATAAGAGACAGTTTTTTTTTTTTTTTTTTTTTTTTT…TC; details: aptamer strand: ATP DNA aptamer (quencher-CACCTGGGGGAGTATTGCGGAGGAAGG + anchor), 100 nM annealed; ATP concentration: 500 uM;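 also: ATP exposure 15 min at 22 °C before imaging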
# output: bare number, no unit

Observe how each entry below is paired with its result.
CTATTAATAC 1.63
ATTATCAGGT 1.06
CAGGGTAGAG 1
ATGTGCTGTT 0.998
CTGACGTTTT 1.18

Task: So what's the measured switch fluorescence ratio for this one? `AGTCAAAGGA`
Result: 1.01

Task: Check `AGAAACAGGA` too.
Result: 1.04

Task: Check `GATCAGCCCC` too.
Result: 1.02

* * *

test system: ATP; test: switch fluorescence ratio, 500 uM ATP over buffer (Cy3 cluster intensity, sum of 5 cycles each) (fold (ratio)); higher = stronger signal-on switching upon ATP binding; sequences stand for … in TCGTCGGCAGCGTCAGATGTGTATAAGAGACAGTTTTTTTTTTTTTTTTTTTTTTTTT…TC; settings: aptamer strand: ATP DNA aptamer (quencher-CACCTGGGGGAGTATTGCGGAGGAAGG + anchor), 100 nM annealed; ATP concentration: 500 uM;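 also: ATP exposure 15 min at 22 °C before imaging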
measurement type: switch fluorescence ratio

AAGTTTGGAT 0.992
GCGTAAAACG 0.977
CGCGGAGCTT 1.03
TTGGGGAGGT 1.01

Task: So what's the measured switch fluorescence ratio for this one? `AGGAGTGTCG`
Result: 1.04

Task: Check `TTTTCTTTTC` too.
Result: 1.09

Task: Check `AGGTGGTGTG` too.
Result: 0.984

Task: Check `TACGTGGTAG` too.
Result: 1.06

* * *

tested on: ATP; assay: switch fluorescence ratio, 500 uM ATP over buffer (Cy3 cluster intensity, sum of 5 cycles each) (fold (ratio)); higher = stronger signal-on switching upon ATP binding; sequences stand for … in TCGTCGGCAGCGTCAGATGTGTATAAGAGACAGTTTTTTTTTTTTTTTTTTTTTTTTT…TC; conditions: aptamer strand: ATP DNA aptamer (quencher-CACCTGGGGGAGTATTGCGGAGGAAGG + anchor), 100 nM annealed; ATP concentration: 500 uM;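 also: ATP exposure 15 min at 22 °C before imaging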
Measured switch fluorescence ratio values are reported for all entries that follow.
# output: bare number, no unit

Task: So what's the measured switch fluorescence ratio for this one? `TAAAAATCGA`
Result: 0.993

Task: Check `GCTTACTCTG` too.
Result: 1.62

Task: Check `TTCGGGTCCT` too.
Result: 1.02

Task: Check `ATAACGAGTC` too.
Result: 1.04

Task: Check `TTGGTGGGCA` too.
Result: 0.993

* * *

Measured switch fluorescence ratio values are reported for all entries that follow.
test system: ATP; experiment: switch fluorescence ratio, 500 uM ATP over buffer (Cy3 cluster intensity, sum of 5 cycles each) (fold (ratio)); higher = stronger signal-on switching upon ATP binding; sequences stand for … in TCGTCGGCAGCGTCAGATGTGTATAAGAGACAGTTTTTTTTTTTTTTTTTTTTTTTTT…TC; details: aptamer strand: ATP DNA aptamer (quencher-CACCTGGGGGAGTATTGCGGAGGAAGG + anchor), 100 nM annealed; ATP concentration: 500 uM;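 also: ATP exposure 15 min at 22 °C before imaging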
# output: bare number, no unit

Observe how each entry below is paired with its result.
AAATGTTTTC 0.979
AGTTTTCAAG 1
AAATCCCTAC 1.06
GGATGTTTGG 0.975
CGAACTGCAG 1.03

Task: So what's the measured switch fluorescence ratio for this one? `TGCAACCTTT`
Result: 1.02

Task: Check `CCAGGTATTT` too.
Result: 1.1

Task: Check `TTATTGCGGA` too.
Result: 0.994

Task: Check `TTATGCTAAA` too.
Result: 0.994

Task: Check `TAGGGGCGTG` too.
Result: 0.998

Task: Check `ATGTGCGGGC` too.
Result: 1.02

Task: Check `CGCGTGGTA` too.
Result: 1.07

Task: Check `TTTTTCCGGA` too.
Result: 0.997

Task: Check `TTGTGCATTT` too.
Result: 1.01

Task: Check `TTTTGGACCT` too.
Result: 1.3

Task: Check `GCTGGGACTT` too.
Result: 1

Task: Check `ATGGGTTTAG` too.
Result: 0.994

* * *

test system: ATP; test: switch fluorescence ratio, 500 uM ATP over buffer (Cy3 cluster intensity, sum of 5 cycles each) (fold (ratio)); higher = stronger signal-on switching upon ATP binding; sequences stand for … in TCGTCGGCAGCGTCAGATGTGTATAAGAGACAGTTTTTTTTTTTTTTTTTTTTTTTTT…TC; settings: aptamer strand: ATP DNA aptamer (quencher-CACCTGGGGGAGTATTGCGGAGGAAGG + anchor), 100 nM annealed; ATP concentration: 500 uM;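 also: ATP exposure 15 min at 22 °C before imaging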
Give class 1 when the value for switch fluorescence ratio is at least 1. Give class 0 when it is less.

Recorded results for 3 sequences are shown here.
AAATGTGACG class 1
CGGGGATTGA class 0
TAATGCTTAT class 1

Task: Quick check, switch fluorescence ratio >= 1? `GCCGCAGCTA`
Result: class 1

* * *

Measured switch fluorescence ratio values are reported for all entries that follow.
system: ATP; experiment: switch fluorescence ratio, 500 uM ATP over buffer (Cy3 cluster intensity, sum of 5 cycles each) (fold (ratio)); higher = stronger signal-on switching upon ATP binding; sequences stand for … in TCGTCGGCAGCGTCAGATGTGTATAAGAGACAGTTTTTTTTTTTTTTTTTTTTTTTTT…TC; conditions: aptamer strand: ATP DNA aptamer (quencher-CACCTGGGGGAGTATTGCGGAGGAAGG + anchor), 100 nM annealed; ATP concentration: 500 uM;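 also: ATP exposure 15 min at 22 °C before imaging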
# output: bare number, no unit

Observe how each entry below is paired with its result.
GGGTTTGAAT 0.978
CAGGAGGGCA 1.04
TGCTGGGGGC 0.971

Task: So what's the measured switch fluorescence ratio for this one? `AGAGTGTTTC`
Result: 0.943

Task: Check `ATTAGCGTCA` too.
Result: 0.991

Task: Check `GGGAATTGGT` too.
Result: 0.979

Task: Check `TTGGGCCGGT` too.
Result: 1

Task: Check `GTGGGGTTGG` too.
Result: 0.981

Task: Check `GGTGCGTACG` too.
Result: 1.01

Task: Check `GCTGTAGCGG` too.
Result: 1.02

* * *

system: ATP; assay: switch fluorescence ratio, 500 uM ATP over buffer (Cy3 cluster intensity, sum of 5 cycles each) (fold (ratio)); higher = stronger signal-on switching upon ATP binding; sequences stand for … in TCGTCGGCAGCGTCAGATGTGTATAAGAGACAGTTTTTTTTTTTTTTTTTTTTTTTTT…TC; settings: aptamer strand: ATP DNA aptamer (quencher-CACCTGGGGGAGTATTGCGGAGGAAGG + anchor), 100 nM annealed; ATP concentration: 500 uM;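 also: ATP exposure 15 min at 22 °C before imaging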
measurement type: switch fluorescence ratio

GTAGGAACCT 1.8

Then there is this sequence:
Task: So what's the measured switch fluorescence ratio for this one? `GATTGTGCGG`
Result: 0.981

* * *

tested on: ATP; test: switch fluorescence ratio, 500 uM ATP over buffer (Cy3 cluster intensity, sum of 5 cycles each) (fold (ratio)); higher = stronger signal-on switching upon ATP binding; sequences stand for … in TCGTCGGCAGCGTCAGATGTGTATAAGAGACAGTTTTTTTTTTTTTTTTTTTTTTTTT…TC; conditions: aptamer strand: ATP DNA aptamer (quencher-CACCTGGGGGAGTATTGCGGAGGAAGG + anchor), 100 nM annealed; ATP concentration: 500 uM;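 also: ATP exposure 15 min at 22 °C before imaging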
Give rule met when the value for switch fluorescence ratio is at least 1. Give rule not met when it is less.

Recorded results for 8 sequences are shown here.
GAGAATTAGG rule not met
ACAGTATGGG rule met
TAGGGCGCGG rule not met
CGCAGCGGTT rule met
AACCTTGACG rule met
AGCTTTTCTT rule met
GAATCATACA rule met
ATCCGGGGGA rule met

Task: Quick check, switch fluorescence ratio >= 1? `GCATTAGGAC`
Result: rule met

Task: Check `GAAGGTGTGC` too.
Result: rule met

Task: Check `ACGACTAGGT` too.
Result: rule met

Task: Check `TGGGCGCCGT` too.
Result: rule not met

Task: Check `TCTGTCTATA` too.
Result: rule met

Task: Check `TGACAGTGGG` too.
Result: rule not met

Task: Check `CCACCTATCA` too.
Result: rule met

Task: Check `GACGTTTTGT` too.
Result: rule not met

* * *

Measured switch fluorescence ratio values are reported for all entries that follow.
test system: ATP; test: switch fluorescence ratio, 500 uM ATP over buffer (Cy3 cluster intensity, sum of 5 cycles each) (fold (ratio)); higher = stronger signal-on switching upon ATP binding; sequences stand for … in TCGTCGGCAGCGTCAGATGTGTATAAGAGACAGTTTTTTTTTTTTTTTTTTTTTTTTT…TC; settings: aptamer strand: ATP DNA aptamer (quencher-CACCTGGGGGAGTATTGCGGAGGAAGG + anchor), 100 nM annealed; ATP concentration: 500 uM;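 also: ATP exposure 15 min at 22 °C before imaging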
# output: bare number, no unit

Observe how each entry below is paired with its result.
TTGGTATGTG 0.968
TGCAGGGCGT 1.01
ATAAGGCATG 0.975
CTTGTTGTTC 0.998
TGGCACTTTT 1.01
TGGGAGGTTG 0.994
GATGGAACGG 1.05
TTGACCGATT 0.978

Task: Test system ATP; read-out switch fluorescence ratio; what value for `CGGCTAGTCT` ?;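 also: ATP exposure 15 min at 22 °C before imaging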
Result: 0.993

Task: Check `AGGCGGTTTG` too.
Result: 0.985

Task: Check `CAATTCGTAA` too.
Result: 1.11

Task: Check `TCATGGGGTT` too.
Result: 1.01

Task: Check `GCAGGAGCAT` too.
Result: 1.03

Task: Check `TAATTAGTGG` too.
Result: 0.983

Task: Check `CAGGGTCGGG` too.
Result: 0.966

Task: Check `TGTTAAAGTT` too.
Result: 0.991

Task: Check `GGGAGAAATT` too.
Result: 1.02
